Quick reference for log10 OD450 nm among some binders
- SYSTEM_TESTED: T1, human IL2Rβ Fc fusion protein (human, UniProt P14784 27-239)
- T1 construct: also called ILR2β; CD122; not shown: Fc part
- T1 sequence (looked up): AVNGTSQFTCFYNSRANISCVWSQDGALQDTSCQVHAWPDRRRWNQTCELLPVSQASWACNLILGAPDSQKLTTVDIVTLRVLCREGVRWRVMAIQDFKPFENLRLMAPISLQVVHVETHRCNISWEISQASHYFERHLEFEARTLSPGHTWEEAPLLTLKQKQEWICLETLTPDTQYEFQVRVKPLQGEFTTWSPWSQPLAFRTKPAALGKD
- PROCEDURE_SUMMARY: ELISA, single concentration, anti-flag detection, E. coli-produced clone
Would you kindly interpret these values as log10 of OD450 nm expressed in OD450?

Recorded results for 2 binders are shown here.
| BINDER | NUMERIC_VALUE |
| --- | --- |
| EP585 (clone 2021EP16-C03), E. coli-produced (ligand) APASSSTKKTQLQLEHLLLDLQMILNGINNYKNPKLTRMLTFKFYMPKKATELKHLQCLEEELKPLEEVLNLAQSKNFHLSPPDLIANMAVYFVELKGSETTFMCEYADETATIVEFLNRWITFSQSIISTLT | -0.23 |
| EP573 (clone 2021EP16-E02), E. coli-produced (ligand) APASSSTKKTQLQLEHLLLDLQMILNGINNYKNPKLTRMLTFKFYMPKKATELKHLQCLEEELKPLEEVLNLAQSKNFHLNRTDLVGDVNATIKALKGSETTFMCEYADETATIVEFLNRWITFSQSIISTLT | -1.15 |

Here is another binder to look at.
Field log10 OD450 nm (entry EP567 (clone 2021EP21-C04), E. coli-produced (ligand) APASSSTKKTQLQLEHLLLDLQMILNGINNYKNPKLTRMLTFKFYMPKKATELKHLQCLEEELKPLEEVLNLAQSKNFHLSLREPIGNIVTSVRELKGSETTFMCEYADETATIVEFLNRWITFSQSIISTLT ) reads -1.17
